assay-remarks: Plasma concentration in Swiss mouse at 50 mg/kg, po administered as single dose for 16 hrs
Assay type: ADME, organism-based
Parameters: dose 50 mg/kg, route oral
measurement-type: concentration at 16 h (nM)
Number only, in nM; omit the unit.

Output concentration at 16 h of Cc1cc(Nc2ccc(C(F)(F)F)cc2)n2ncnc2n1
1000

====

assay-remarks: Plasma concentration in Swiss mouse at 50 mg/kg, po administered as single dose for 240 mins
Assay type: ADME, organism-based
Parameters: dose 50 mg/kg, route oral
recorded-conditions: read-out: C0
measurement-type: concentration at 4 h (nM)
Number only, in nM; omit the unit.

Output concentration at 4 h of Cc1cc(Nc2ccc3cc4ccccc4cc3c2)n2ncnc2n1
1000
